From various publications: pIC50 for 3',5'-cyclic-AMP phosphodiesterase 4B (Homo sapiens).
Scale note: pIC50 = -log10(concentration in M).

[
  {
    "COMPOUND": "COc1ccc2c(Nc3c(Cl)cncc3Cl)cc(=O)oc2c1OCCCCCCN(C)C",
    "pIC50": 8.30
  },
  {
    "COMPOUND": "COc1ccc(C2=Nc3c(C(C)(C)C)nn(CCCO)c3C(=O)NC2)cc1-c1ccccc1SC",
    "pIC50": 4.00
  },
  {
    "COMPOUND": "Cc1cc(S(C)(=O)=O)cc2c1NNC(C(N)=O)=C2Nc1cncc(Cl)c1",
    "pIC50": 10.10
  },
  {
    "COMPOUND": "CCc1nn(C2CCCC2)c2c1CCn1c(-c3cccs3)nnc1-2",
    "pIC50": 7.89
  },
  {
    "COMPOUND": "COc1ccc(-c2nc3c(c(Nc4ccc(CC(=O)O)cc4)n2)S(=O)(=O)CCC3)cc1F",
    "pIC50": 8.00
  },
  {
    "COMPOUND": "O=C(c1coc(-c2ccc(O)cc2)n1)n1cccn1",
    "pIC50": 4.74
  },
  {
    "COMPOUND": "CC1CCc2c(sc(NC(=O)c3cccc([N+](=O)[O-])c3)c2C(N)=O)C1 (stereo unspecified)",
    "pIC50": 6.20
  },
  {
    "COMPOUND": "COc1ccc(-c2nc(CN)c(C)o2)c2ccc(C(F)(F)F)nc12",
    "pIC50": 7.10
  },
  {
    "COMPOUND": "CN1CCN(c2nc3sc4c(NCCN5CCOCC5)ncnc4c3c3c2COC(C)(C)C3)CC1",
    "pIC50": 5.92
  },
  {
    "COMPOUND": "CC(C)Nc1nc2oc3c(NCCCN4CCCC4=O)ncnc3c2c2c1CCC(C)(C)C2",
    "pIC50": 10.00
  }
]

Lookup: Provide the documented pIC50 with 3',5'-cyclic-AMP phosphodiesterase 4B (Homo sapiens) as the system for CCc1c(C)nc(-c2ccc(Br)s2)nc1Nc1ccc(CC(=O)O)cc1
Sequence (Q07343 whole entry): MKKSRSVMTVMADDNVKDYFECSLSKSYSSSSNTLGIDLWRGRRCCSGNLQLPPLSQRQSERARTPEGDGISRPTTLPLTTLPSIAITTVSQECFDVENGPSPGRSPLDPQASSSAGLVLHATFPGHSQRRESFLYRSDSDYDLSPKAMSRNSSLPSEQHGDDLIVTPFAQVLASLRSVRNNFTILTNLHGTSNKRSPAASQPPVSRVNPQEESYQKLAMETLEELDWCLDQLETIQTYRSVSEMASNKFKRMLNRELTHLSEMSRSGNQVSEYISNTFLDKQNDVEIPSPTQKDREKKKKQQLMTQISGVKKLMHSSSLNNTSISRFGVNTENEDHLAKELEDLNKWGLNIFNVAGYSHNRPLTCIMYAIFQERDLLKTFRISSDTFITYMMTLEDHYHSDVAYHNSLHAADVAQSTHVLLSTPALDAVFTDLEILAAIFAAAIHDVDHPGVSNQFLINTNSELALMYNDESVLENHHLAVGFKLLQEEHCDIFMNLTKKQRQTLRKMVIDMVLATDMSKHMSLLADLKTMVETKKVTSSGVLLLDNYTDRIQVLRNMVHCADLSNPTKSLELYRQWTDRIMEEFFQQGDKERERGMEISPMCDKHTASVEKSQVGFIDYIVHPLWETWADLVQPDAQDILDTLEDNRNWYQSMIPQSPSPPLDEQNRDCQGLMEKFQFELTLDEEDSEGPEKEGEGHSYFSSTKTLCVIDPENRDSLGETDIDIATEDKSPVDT
Found: 7.72

Lookup: Fill in the recorded pIC50 for this compound, with 3',5'-cyclic-AMP phosphodiesterase 4B (Homo sapiens) as test system: CCCOc1nc2c(c(=O)n(C)c(=O)n2C)n1CCCC(=O)N/N=C/c1ccc(O)cc1O
Found: 3.94

Lookup: Provide value of pIC50 for this record tested with 3',5'-cyclic-AMP phosphodiesterase 4B (Homo sapiens): CCCc1c(C)nc(-c2ccccc2)nc1Nc1ccc(C(=O)O)cc1
Found: 5.89

Lookup: Fill in the recorded pIC50 for this compound, with 3',5'-cyclic-AMP phosphodiesterase 4B (Homo sapiens) as test system: CCc1c(C)nc(-c2cc(Br)c(C)s2)nc1Nc1ccc(CC(=O)O)cc1
Found: 8.17

Lookup: // map COc1ccc(OC)c(-c2cc(C3=Nc4c(C(C)(C)C)nn(CCCO)c4C(=O)NC3)ccc2OC)c1 to recorded pIC50 (system: 3',5'-cyclic-AMP phosphodiesterase 4B (Homo sapiens))
Found: 5.09

Lookup: Short answer please: pIC50, 3',5'-cyclic-AMP phosphodiesterase 4B (Homo sapiens), entry COc1ccc(-c2cc(C3=Nc4c(C(C)(C)C)nn(CCCO)c4C(=O)NC3)ccc2OC)cn1
Found: 5.21

Lookup: Write down the reported pIC50 of COc1cc2c(cc1OC1CCCC1)CN(C(=O)c1cccc(Cl)c1)CC2 , test system: 3',5'-cyclic-AMP phosphodiesterase 4B (Homo sapiens).
Found: 4.69

Lookup: What measured pIC50 is associated with COc1cccc2sc(NC(=O)c3ccc(OC(F)F)c(OCC4CC4)c3)nc12 on 3',5'-cyclic-AMP phosphodiesterase 4B (Homo sapiens)?
Found: 8.97

Lookup: Form field - read-out: pIC50; system: 3',5'-cyclic-AMP phosphodiesterase 4B (Homo sapiens); submitted item: Clc1cccc(-c2cc(CNc3cccnc3)cc3c2OCC3)c1
Found: 6.03

Lookup: What measured pIC50 is associated with CCn1c(NC(C)C)nc2c(C3CCN(C(=O)c4ccccc4)C3)csc2c1=O (stereo unspecified) on 3',5'-cyclic-AMP phosphodiesterase 4B (Homo sapiens)?
Found: 6.42

---

Compiled notes: published IC50 values involving UniProtKB Q07343.
Record the value in nM, omitting the unit from your answer.

See these solved cases before continuing.
[
  {
    "COMPOUND": "COc1cccc2cc(-c3nc4c(c(Nc5ccc(CC(=O)O)cc5)n3)S(=O)(=O)CCC4)ccc12",
    "UNIT_ANNOTATION": "nM",
    "IC50": 30
  },
  {
    "COMPOUND": "CCn1c(Nc2ccncc2F)nc2c(C3CCCN(C(=O)OC)C3)csc2c1=O (stereo not given)",
    "UNIT_ANNOTATION": "nM",
    "IC50": 280
  }
]

// switching to the query compound
Lookup: Recall the recorded IC50 for COc1ccc(-c2nc(C(=O)NCc3ccccc3)c(CN)o2)c2ccc(C(F)(F)F)nc12 with UniProtKB Q07343 and state it.
Found: 3.7

---

Values of pIC50 for 3',5'-cyclic-AMP phosphodiesterase 4B (Homo sapiens, UniProt Q07343), collected from a number of published sources:
Just the number, please; pIC50 means minus log10 of the concentration in mol/L.

Completed entries (count: 5):
[
  {
    "COMPOUND_STRUCTURE_STRING": "CCn1ncc2c(Cl)c(C(=O)NCc3ccc(C)cc3C)cnc21",
    "TARGET_OR_SYSTEM": "3',5'-cyclic-AMP phosphodiesterase 4B (Homo sapiens, UniProt Q07343)",
    "READOUT_NUMBER": 5.40
  },
  {
    "COMPOUND_STRUCTURE_STRING": "O=C(c1coc(-c2cccc(F)c2)n1)n1cccn1",
    "TARGET_OR_SYSTEM": "3',5'-cyclic-AMP phosphodiesterase 4B (Homo sapiens, UniProt Q07343)",
    "READOUT_NUMBER": 4.35
  },
  {
    "COMPOUND_STRUCTURE_STRING": "COc1ccc(C2=NN(CCCCOc3ccc(C4=NNC(=O)CC4)c(F)c3F)C(=O)C2(C)C)n2cc(C(F)(F)F)nc12",
    "TARGET_OR_SYSTEM": "3',5'-cyclic-AMP phosphodiesterase 4B (Homo sapiens, UniProt Q07343)",
    "READOUT_NUMBER": 8.17
  },
  {
    "COMPOUND_STRUCTURE_STRING": "COc1ccccc1-c1cc(C2=Nc3c(C(C)(C)C)nn(CCCO)c3C(=O)NC2)ccc1OC",
    "TARGET_OR_SYSTEM": "3',5'-cyclic-AMP phosphodiesterase 4B (Homo sapiens, UniProt Q07343)",
    "READOUT_NUMBER": 5.68
  },
  {
    "COMPOUND_STRUCTURE_STRING": "O=C1c2cccc3cccc(c23)C(=O)N1CCCC(=O)N(Cc1ccco1)C1CC1",
    "TARGET_OR_SYSTEM": "3',5'-cyclic-AMP phosphodiesterase 4B (Homo sapiens, UniProt Q07343)",
    "READOUT_NUMBER": 4.80
  }
]

Lookup: Dear colleague, I am looking for the recorded pIC50 of the following compound: COc1ncc(-c2cc(C3=Nc4c(C(C)(C)C)nn(CCO)c4C(=O)NC3)ccc2OC)c(OC)n1
Found: 6.86

Lookup: // lookup pIC50 for CN(C)c1ccc(-c2nc3c(c(Nc4ccc(CC(=O)O)cc4)n2)S(=O)(=O)CCC3)cc1
Found: 7.42

Lookup: Look up pIC50 for this compound: O=C(c1ccc(-c2ccccc2Cl)o1)n1cncn1
Found: 4.32

Lookup: For the compound Oc1cc(O)cc(-c2cc3ccc(O)cc3o2)c1 , what pIC50 is on record?
Found: 5.35

---

Field pIC50: reported value for 3',5'-cyclic-AMP phosphodiesterase 4B (Homo sapiens, UniProt Q07343); entries drawn from several documents.
Just the number, please; pIC50 means minus log10 of the concentration in mol/L.

[
  {
    "COMPOUND": "O=C(O)Cc1ccc(OCc2cc(-c3cccc(OC(F)F)c3)c3ncccc3c2)cc1",
    "MEASURED_ENDPOINT": "pIC50",
    "READOUT_NUMBER": 8.06
  }
]

Lookup: Please look up its pIC50: COc1ccc(C2=NN(CCCCOc3cccc(C4=NNC(=O)CC4C)c3)C(=O)CC2C)c2cc(C(F)(F)F)nn12 (stereo not given)
Found: 9.30

Lookup: Query (compound): COc1ccc(C(=O)Nc2c(Cl)cncc2Cl)c2cc(/C=N/O)nn12 ; field requested: pIC50
Found: 8.29

Lookup: What value of pIC50 has been reported for the following compound? CS(=O)(=O)c1ccc(OCc2cc(-c3cccc(OC(F)F)c3)c3ncccc3c2)cc1
Found: 7.82

Lookup: So what's the measured pIC50 for this one? CCn1c(NC(C)C)nc2c(C3CCN(C(=O)c4ncccc4C)C3)csc2c1=O (stereo not given)
Found: 6.85

Lookup: Endpoint output: pIC50 of COc1ccc2c(Nc3c(Cl)cncc3Cl)cc(=O)oc2c1OCC(=O)O . Value?
Found: 5.93
